# ASSAYED_TARGET: mPGES-1 (Homo sapiens (Human))
# Sequence (O14684 whole entry): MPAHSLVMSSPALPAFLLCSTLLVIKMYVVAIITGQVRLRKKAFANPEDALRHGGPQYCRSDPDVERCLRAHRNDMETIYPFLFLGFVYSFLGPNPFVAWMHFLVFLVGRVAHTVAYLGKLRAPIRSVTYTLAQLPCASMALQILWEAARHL
# PROCEDURE_DETAILS: A549 cell-based assay (PGE2 formation, IL-1β stimulated, 50% human serum)
# PROTOCOL_CONDITIONS: A549 cells, IL-1β 5 ng/ml, read-out: mPGES-1 inhibitory effect in the cell assay, IC50
pIC50: −log10 of the molar value.
OUTCOME_MEASURE: pIC50

Some molecules with recorded pIC50:
Tell me measured pIC50 for Cn1c(Nc2c(F)ccc(CNC(=O)C(C)(C)C)c2F)nc2cc(C(=O)Nc3cc(F)cc(Cl)c3)c(OCC(F)F)cc21 please.
8.52

Tell me measured pIC50 for Cn1c(Nc2c(Cl)ccc(CNC(=O)C(C)(C)C)c2Cl)nc2cc(C(=O)Nc3cccc(Cl)c3)c(F)cc21 please.
8.40

Tell me measured pIC50 for COCC(=O)NCc1ccc(Cl)c(Nc2nc3cc(C(=O)Nc4ccc(F)c(Cl)c4)c(OCC(F)F)cc3n2C)c1Cl please.
8.30

Tell me measured pIC50 for Cn1c(Nc2c(Cl)ccc(CNC(=O)c3cc[nH]n3)c2Cl)nc2cc(C(=O)Nc3ccc(F)c(Cl)c3)c(OCC(F)F)cc21 please.
8.10

Tell me measured pIC50 for Cn1c(Nc2c(Cl)ccc(CNC(=O)C3(C)COC3)c2Cl)nc2cc(C(=O)Nc3ccc(F)c(Cl)c3)c(OCC(F)F)cc21 please.
9.00

Tell me measured pIC50 for CC(C)C(=O)NCc1ccc(Cl)c(Nc2nc3cc(C(=O)Nc4ccc(F)c(Cl)c4)c(OCC(F)F)cc3n2C)c1Cl please.
9.00

(a) Cn1c(Nc2c(Cl)ccc(CNC(=O)C(C)(C)O)c2Cl)nc2cc(C(=O)NCC(F)(F)F)c(OCC(F)F)cc21
(b) Cn1c(Nc2c(Cl)ccc(CNC(=O)C(C)(C)C)c2Cl)nc2cc(C(=O)Nc3c(F)ccc(F)c3F)c(OCC(F)F)cc21
(c) Cn1c(Nc2c(Cl)ccc(CNC(=O)CC(F)(F)F)c2Cl)nc2cc(C(=O)Nc3ccc(F)c(Cl)c3)c(OCC(F)F)cc21
List these items ordered by pIC50, big to small. Write the labels in rank order as requested.
c, b, a

(1) Cn1c(Nc2c(Cl)ccc(CNC(=O)C3CCCO3)c2Cl)nc2cc(C(=O)Nc3ccc(F)c(Cl)c3)c(OCC(F)F)cc21 (centres unmarked)
(2) CC(C)(C)C(=O)NCc1ccc(Cl)c(Nc2nc3c(F)c(OCC(F)(F)F)c(C(=O)N[C@H]4CC[C@H](C(F)(F)F)CC4)cc3[nH]2)c1Cl
Select the item with the higher value of pIC50 from the options 1 and 2 listed. Answer by quoting the chosen item's label.
2

These measurements were taken from patent US8759537B2.
